Biological target: CYP2C19 (Homo sapiens, UniProt P33261)
Sequence (P33261 whole entry): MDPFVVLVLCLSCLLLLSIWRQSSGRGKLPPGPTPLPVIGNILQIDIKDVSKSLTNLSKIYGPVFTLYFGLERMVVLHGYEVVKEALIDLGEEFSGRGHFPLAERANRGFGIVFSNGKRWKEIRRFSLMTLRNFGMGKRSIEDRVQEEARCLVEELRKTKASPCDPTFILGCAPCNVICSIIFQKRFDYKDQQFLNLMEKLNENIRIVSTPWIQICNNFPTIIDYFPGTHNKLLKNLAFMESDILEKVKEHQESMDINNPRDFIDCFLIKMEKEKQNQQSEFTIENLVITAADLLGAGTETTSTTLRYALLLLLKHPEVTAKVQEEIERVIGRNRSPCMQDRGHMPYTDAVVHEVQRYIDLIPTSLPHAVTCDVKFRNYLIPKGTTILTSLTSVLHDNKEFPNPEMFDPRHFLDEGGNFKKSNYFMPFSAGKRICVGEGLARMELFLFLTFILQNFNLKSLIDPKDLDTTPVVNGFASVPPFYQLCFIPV
Assay: Enzyme inhibition assay, CYP2C19
Conditions: HLM; CYP2C19 S-mephenytoin 4′-hydroxylation
Recorded metric: IC50 (nM)
Lab book: enter the figure in nM, no units written.

For CYP2C19 (Homo sapiens, UniProt P33261), give IC50 of the listed compound: CCC1(c2ccccc2)C(=O)NC(=O)N(Cc2ccccc2)C1=O (single isomer, unassigned; (-)) [(-)-N-3-benzyl-phenobarbital]
148

###

Biological target: CYP1A1 (Homo sapiens, UniProt P04798)
Sequence (P04798 whole entry): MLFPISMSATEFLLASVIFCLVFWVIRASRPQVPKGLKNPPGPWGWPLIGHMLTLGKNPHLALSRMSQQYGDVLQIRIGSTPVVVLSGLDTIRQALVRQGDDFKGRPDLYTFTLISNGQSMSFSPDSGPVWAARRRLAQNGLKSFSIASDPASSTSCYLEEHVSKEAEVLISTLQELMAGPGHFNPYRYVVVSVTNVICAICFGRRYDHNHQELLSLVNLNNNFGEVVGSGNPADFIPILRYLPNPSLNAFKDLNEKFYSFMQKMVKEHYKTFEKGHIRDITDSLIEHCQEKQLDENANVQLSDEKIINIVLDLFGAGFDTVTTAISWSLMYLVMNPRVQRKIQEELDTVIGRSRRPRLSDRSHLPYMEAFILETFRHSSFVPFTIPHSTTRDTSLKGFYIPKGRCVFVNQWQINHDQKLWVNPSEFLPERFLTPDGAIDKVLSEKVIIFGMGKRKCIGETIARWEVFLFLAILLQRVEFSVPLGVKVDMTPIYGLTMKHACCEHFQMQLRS
Experiment: Reaction phenotyping, rCYP1A1
Conditions: recombinant CYP1A1, pH 7.4
Recorded metric: remaining at 1 h, 10 µM
Units required after the number.

For CYP1A1 (Homo sapiens, UniProt P04798), give remaining at 1 h, 10 µM of the listed compound: CCOc1ccc(NC(C)=O)cc1 [Phenacetin]
41%

Entry source: paper PMC8706783
